B1: E3 ubiquitin-protein ligase CCNB1IP1 (Homo sapiens), Q9NPC3 (parent)
chain: MSLCEDMLLCNYRKCRIKLSGYAWVTACSHIFCDQHGSGEFSRSPAICPACNSTLSGKLDIVRTELSPSEEYKAMVLAGLRPEIVLDISSRALAFWTYQVHQERLYQEYNFSKAEGHLKQMEKIYTQQIQSKDVELTSMKGEVTSMKKVLEEYKKKFSDISEKLMERNRQYQKLQGLYDSLRLRNITIANHEGTLEPSMIAQSGVLGFPLGNNSKFPLDNTPVRNRGDGDGDFQFRPFFAGSPTAPEPSNSFFSFVSPSRELEQQQVSSRAFKVKRI
partner: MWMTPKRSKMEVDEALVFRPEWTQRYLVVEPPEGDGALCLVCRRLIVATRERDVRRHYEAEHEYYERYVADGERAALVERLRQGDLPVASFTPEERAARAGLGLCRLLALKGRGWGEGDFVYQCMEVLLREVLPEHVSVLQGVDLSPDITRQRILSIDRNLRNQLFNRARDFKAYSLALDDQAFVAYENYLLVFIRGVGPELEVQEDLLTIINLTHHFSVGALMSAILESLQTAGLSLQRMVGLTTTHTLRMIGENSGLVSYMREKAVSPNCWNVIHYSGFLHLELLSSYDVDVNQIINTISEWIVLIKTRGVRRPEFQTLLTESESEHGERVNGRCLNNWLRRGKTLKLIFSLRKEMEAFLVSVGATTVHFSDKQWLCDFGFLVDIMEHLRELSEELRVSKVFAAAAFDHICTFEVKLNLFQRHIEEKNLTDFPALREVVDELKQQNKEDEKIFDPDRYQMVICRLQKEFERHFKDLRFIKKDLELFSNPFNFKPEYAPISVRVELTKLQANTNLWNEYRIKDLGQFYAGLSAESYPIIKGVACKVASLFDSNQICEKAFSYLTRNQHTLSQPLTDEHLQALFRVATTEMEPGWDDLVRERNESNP

- Variants of: B1
- stated-conditions: with epmip_human EPM2AIP1, Q7L775
attribute-measured: effect of a mutation on the interaction

>>> observed_value("T187A")
"with no effect"
>>> observed_value("F41L")
"with no effect"
>>> observed_value("N212D")
"with no effect"
>>> observed_value("Y106H")
"with no effect"
